EXPERIMENT DESCRIPTION: Inhibition of Trypanosoma brucei P1 transporter assessed as reduction in [3H]-adenosine uptake measured after 60 sec by scintillation counting method
Exercise: for every item that follows, state its recorded Ki.
Provide the reading as a plain figure in µM.

What value of measured Ki is listed for CC(C)Oc1ncnc2c1c(Cl)cn2[C@@H]1O[C@H](CO)[C@@H](O)[C@H]1O ?
284

# get_value(readout='Ki', item= COc1ncnc2c1c(Cl)cn2[C@@H]1O[C@H](CO)[C@@H](O)[C@H]1O )
35.5

Tell me the measured Ki of CCOc1ncnc2c1c(Cl)cn2[C@@H]1O[C@H](CO)[C@@H](O)[C@H]1O , please.
99

###

Test system: Trypanosoma brucei rhodesiense
EXPERIMENT DESCRIPTION: Antitrypanosomal activity against Trypanosoma brucei rhodesiense assessed as reduction in parasite growth incubated for 3 days by resazurin dye based fluorescence assay
Type: functional, organism-based
CONDITIONS USED: 72 h
Please respond with reported EC50 for every item in the list.
# output: bare number, implied unit nM

May I ask what EC50 has been recorded for O=c1[nH]cnc2c1c(-c1ccccc1)cn2[C@@H]1O[C@H](CO)[C@@H](O)[C@H]1O ?
9400

Fill blank: measured EC50 of the compound Cc1ccc(C(=O)Nc2ccc(S(=O)(=O)O)c3cc(S(=O)(=O)O)cc(S(=O)(=O)O)c23)cc1NC(=O)c1cccc(NC(=O)Nc2cccc(C(=O)Nc3cc(C(=O)Nc4ccc(S(=O)(=O)O)c5cc(S(=O)(=O)O)cc(S(=O)(=O)O)c45)ccc3C)c2)c1 [SURAMIN] is ____.
33

What value of EC50 has been recorded for this entry: O=c1[nH]cnc2c1ncn2[C@@H]1O[C@H](CO)C[C@H]1O
6700

What does the data say about its EC50? Entry: CCCCCOc1ncnc2c1c(Cl)cn2[C@@H]1O[C@H](CO)[C@@H](O)[C@H]1O
32

Would you kindly share the measured EC50 for CCCOc1ncnc2c1c(Cl)cn2[C@@H]1O[C@H](CO)[C@@H](O)[C@H]1O ?
76

Need EC50 of CC(C)Oc1ncnc2c1c(Cl)cn2[C@@H]1O[C@H](CO)[C@@H](O)[C@H]1O , thanks.
100

Request the reported EC50 associated with O=c1[nH]cnc2c1c(Cl)cn2[C@@H]1O[C@H](CO)[C@@H](O)[C@H]1O
25100

# get_value(readout='EC50', item= OC[C@H]1O[C@@H](n2cc(C(F)(F)F)c3c(O)ncnc32)[C@H](O)[C@@H]1O )
10900

Please look up its EC50: OC[C@H]1O[C@@H](n2cc(Cl)c3c(OCCOc4ccccc4)ncnc32)[C@H](O)[C@@H]1O
160

EC50 for CCOc1ncnc2c1c(Cl)cn2[C@@H]1O[C@H](CO)[C@@H](O)[C@H]1O ?
57

// query EC50 value for entry O=c1[nH]cnc2c1ccn2[C@@H]1O[C@H](CO)C[C@H]1O
2900

Any idea what its EC50 is? The compound is COc1ncnc2c1c(Cl)cn2[C@@H]1O[C@H](CO)[C@@H](O)[C@H]1O
36

Entry under review: Cc1nc2c(ccn2[C@@H]2O[C@H](CO)[C@@H](O)[C@H]2O)c(=O)[nH]1 . Reported EC50?
4700

Which value of EC50 has been reported for CC(C)COc1ncnc2c1c(Cl)cn2[C@@H]1O[C@H](CO)[C@@H](O)[C@H]1O in the records?
30

I would be grateful if you could share the reported EC50 for O=c1[nH]cnc2c1c(F)cn2[C@@H]1O[C@H](CO)[C@@H](O)[C@H]1O .
1060

For OC[C@H]1O[C@@H](n2cc(Cl)c3c(OC4CCCCC4)ncnc32)[C@H](O)[C@@H]1O , what is its reported EC50?
380
